Test Target: GDP-KRAS G12V (Homo sapiens, UniProt P01116, G12V)
Construct: GDP-loaded HIS-KRAS(G12V, aa 1-169)
Sequence (P01116 1-169 isoform P01116-2 G12V): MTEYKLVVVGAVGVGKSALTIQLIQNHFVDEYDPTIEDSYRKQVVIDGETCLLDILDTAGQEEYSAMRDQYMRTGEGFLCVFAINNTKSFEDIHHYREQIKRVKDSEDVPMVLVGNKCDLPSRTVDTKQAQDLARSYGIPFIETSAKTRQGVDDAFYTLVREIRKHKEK
Experiment Summary: SOS1 catalyzed nucleotide exchange assay (TR-FRET)
Reported Conditions: GDP-loaded HIS-KRAS(G12V, aa 1-169) 10-15 nM; 0.5 μM SOS1 ExD; 80 nM BODIPY FL GTP; 15 min pre-incubation, 4 hours at 25 °C
pIC50: −log10 of the molar value.
Use true when the recorded pIC50 is no lower than 8; use false when it is lower.

1. C#Cc1c(F)ccc2cc(O)cc(-c3nc4c5c(nc(OCC67CCCN6CC(F)C7)nc5c3F)N(C)C3CCCC3N4C)c12 (centres unmarked): true
2. C#Cc1c(F)ccc2cc(N)cc(-c3nc4c5c(nc(OCC67CCCN6CC(F)C7)nc5c3F)N(C)C3COCC3N4C)c12 (centres unmarked): true
3. C#Cc1c(F)ccc2cc(O)cc(-c3nc4c5c(nc(OC[C@@]67CCCN6C[C@H](F)C7)nc5c3F)N(C)C3COCC3N4C)c12 (mixture of isomers): true
4. C#Cc1c(F)ccc2cc(O)cc(-c3nc4c5c(nc(OC[C@@]67CCCN6C[C@H](F)C7)nc5c3F)N(C)C3CC3N4C)c12 (mixture of isomers): false

Could you now consider this next compound?
Check this compound for pIC50 at or above 8: C#Cc1c(F)ccc2cc(O)cc(-c3nc4c5c(nc(OC[C@@]67CCCN6C[C@H](F)C7)nc5c3F)N(C)[C@H]3COC[C@H]3N4)c12 true
